- Test system: NCI-H522 lung
- Procedure text: NCI-60 one-dose screen, 48 h
- Protocol conditions: 10 µM unless noted
- Description: Growth inhibition of the NCI-H522 human Non-Small Cell Lung tumor cell line is measured as a screen for anti-cancer activity. Cells are grown in 96 well plates and exposed to the test compound for 48 hours. Compounds are tested at a single concentration, which is 10^-5 M for most compounds. The reported endpoint is percent growth (GI% or GIPRCNT), where numbers from 0 - 100% represent growth inhibition, and numbers from -100% - 0 represent cell death. […]
The panel holds about 83,000 compounds, 20% with a hit somewhere; the sample as a whole holds those more often. Activity calls are given as the source filed them. The calls were made as follows: active = growth percent below 10; inactive = the rest.
Hi! Could you answer with just one of these? active, inactive

Tell me the assay call for "COc1ccc(/C(C)=C(\c2ccc(OCCN3CCOCC3)cc2)c2ccc(OC(=O)Cc3ccccc3)cc2)cc1" please.
inactive

Tell me the assay call for "COc1ccc2c(c1)c(-c1nc(-c3cn(C)c4ncccc34)cs1)cn2CCN1CCOCC1" please.
inactive

Tell me the assay call for "CCCCCCCOC(C(=O)OCCN(CC)CC)(c1ccccc1)c1ccccc1" please.
inactive

Tell me the assay call for O=[N+]([O-])CC(c1ccccc1Cl)c1c(-c2ccccc2)[nH]c2ccccc12 (centres undefined) please.
active

Tell me the assay call for "O=C1N[C@@H]2[C@@H](O)[C@@H](O)[C@H](O)C[C@H]2c2cc3c(c(O)c21)OCO3" please.
active

Tell me the assay call for "CCN1C(=O)C(=C/C=C/c2ccccc2)C(=O)N(CC)C1=O" please.
inactive

Tell me the assay call for "COc1ccc(N(CC(=O)NCCC[Te]c2ccccc2)C(=O)CNC(=O)OC(C)(C)C)cc1" please.
active

Tell me the assay call for CC(=O)OC1CCC2(C)C(CCC3C2CC(=O)C2(C)C3CC(Sc3ccc(N(CCCl)CCCl)cc3)C2C(C)=O)C1 (centres undefined) please.
inactive

Tell me the assay call for "CCOc1ccccc1C(=O)OCC(Cl)(Cl)Cl" please.
inactive
